TARGET_OR_TEST_SYSTEM: Acinetobacter baumannii rAcpA (Acinetobacter baumannii, UniProt A0ABX6CG12)
MEASUREMENT_NOTES: Hydrolysis of various phosphorylated compounds by rAcpA (released phosphate)
Assay type: biochemical
COND: phosphate released relative to paranitrophenol released from PNPP x100; compound at 2.0 mM final concentration
Kindly supply the reported Relative Activity values for the records listed here.
Report as a plain number; the unit % is understood.

For the record O=c1ccn([C@@H]2O[C@H](COP(=O)(O)O)[C@@H](O)[C@H]2O)c(=O)[nH]1 , what value of Relative Activity is listed for Acinetobacter baumannii rAcpA (Acinetobacter baumannii, UniProt A0ABX6CG12)?
8.7

Now the same for Cc1ncc(COP(=O)(O)O)c(C=O)c1O [Pyridoxal Phosphate]
35.3

Now the same for O=c1[nH]cnc2c1ncn2[C@@H]1O[C@H](COP(=O)(O)OP(=O)(O)O)[C@@H](O)[C@H]1O
0.5

Now the same for Nc1ncnc2c1ncn2[C@@H]1O[C@H](COP(=O)(O)OP(=O)(O)OP(=O)(O)O)[C@@H](O)[C@H]1O
1.1

Now the same for C[N+](C)(C)CCOP(=O)(O)O
2.0

Now the same for N[C@@H](COP(=O)(O)O)C(=O)O
0.4

Now the same for O=P(O)(O)O[C@H]1[C@H](OP(=O)(O)O)[C@@H](OP(=O)(O)O)[C@H](OP(=O)(O)O)[C@@H](OP(=O)(O)O)[C@H]1OP(=O)(O)O
0.0

Now the same for Cc1ncc(C[n+]2csc(CCOP(=O)(O)O)c2C)c(N)n1 [Thiamine Monophosphate]
12.3

----------
TARGET_OR_TEST_SYSTEM: Acinetobacter baumannii rAcpA (Acinetobacter baumannii, UniProt A0ABX6CG12)
MEASUREMENT_NOTES: biochemical
Type: biochemical
Where a name gives a salt, the structure may show the parent alone.
Kindly supply the reported IC50 values for the records listed here.
Report as a plain number; the unit µM is understood.

Sample O=P(O)(O)OP(=O)(O)O [Sodium Pyrophosphate] — what was its IC50?
2500

Now the same for O[C@@H](CS)[C@@H](O)CS [Dithiothreitol]
3000

Now the same for O=C(O)C(O)C(O)C(=O)O (stereo not drawn) [Sodium Tartrate]
2000

----------
Kindly supply the reported PNPP hydrolysis as percent of that observed for NiCl2 values for the records listed here.
TARGET_OR_TEST_SYSTEM: Acinetobacter baumannii rAcpA (Acinetobacter baumannii)
Format: biochemical
COND: pH 6.0, divalent cation 2 mM final concentration

Sample [Cl-].[Cl-].[Zn+2] [ZnCl2] — what was its PNPP hydrolysis as percent of that observed for NiCl2?
11%

Now the same for [Cl][Mn][Cl] [MnCl2]
50%

Now the same for [Cl-].[Cl-].[Mg+2] [MgCl2]
85%

----------
TARGET_OR_TEST_SYSTEM: Acinetobacter baumannii rAcpA (Acinetobacter baumannii, UniProt A0ABX6CG12)
MEASUREMENT_NOTES: biochemical
Assay type: biochemical
COND: pH 6; read-out: IC50
Note to self: use True only for IC50 readings below 2 mM; a reading exactly at 2 mM still gets False.

Dear reviewer, please state whether CCCCCCCCCCCCOS(=O)(=O)[O-].[Na+] [Sodium Dodecyl Sulfate] has IC50 strictly beneath 2 mM.
True

Now the same for O=C(O)CN(CCN(CC(=O)O)CC(=O)O)CC(=O)O [EDTA]
True

Now the same for O=P(O)(O)O [Sodium Phosphate]
False

Now the same for [F-].[Na+] [Sodium Fluoride]
False

Now the same for [Na+].[Na+].[Na+].[O]=[V]([O-])([O-])[O-] [Vanadate, sodium orthovanadate]
True

Now the same for [O]=[Mo](=[O])([OH])[OH] [Molybdate]
True

Now the same for OCCS [β-Mercaptoethanol]
False

----------
TARGET_OR_TEST_SYSTEM: Acinetobacter baumannii rAcpA (Acinetobacter baumannii, UniProt A0ABX6CG12)
MEASUREMENT_NOTES: biochemical
Assay type: biochemical
COND: read-out: IC50
Kindly supply the reported pIC50 values for the records listed here.
Reminder that pIC50 means the negative base-10 logarithm of the concentration expressed in mol/L.

For the record CCCCCCCCCCCCOS(=O)(=O)[O-].[Na+] [Sodium Dodecyl Sulfate] , what value of pIC50 is listed for Acinetobacter baumannii rAcpA (Acinetobacter baumannii, UniProt A0ABX6CG12)?
4.00

Now the same for [Na+].[Na+].[Na+].[O]=[V]([O-])([O-])[O-] [Vanadate, sodium orthovanadate]
3.90

Now the same for [O]=[Mo](=[O])([OH])[OH] [Molybdate]
3.46

----------
TARGET_OR_TEST_SYSTEM: Acinetobacter baumannii rAcpA (Acinetobacter baumannii)
MEASUREMENT_NOTES: Hydrolysis of various phosphorylated compounds by rAcpA (released phosphate)
Format: biochemical
COND: phosphate released relative to paranitrophenol released from PNPP x100; compound at 2.0 mM final concentration
Experimental: All incubations were carried out for 30 minutes at 37 °C after which time reactions were placed in an ice slurry for 3 minutes followed by addition of enzyme to the respective blanks and reactions were terminated by heating at 65 °C for 10 minutes followed by immersion in an ice slurry for 3 minutes. […] Paranitrophenol was monitored at 405 nm following addition of 1.7 mL 0.5 M Glycine buffer, pH 10. […] Specific activity is expressed as nmoles paranitrophenol or free phosphate liberated mg^-1s^-1.
Note to self: use Yes only for Relative Activity readings below 4%; a reading exactly at 4% still gets No.

Dear reviewer, please state whether Nc1ncnc2c1ncn2[C@@H]1O[C@H](CO)[C@@H](OP(=O)(O)O)[C@H]1O has Relative Activity strictly beneath 4%.
No

Now the same for Nc1ncnc2c1ncn2[C@@H]1O[C@H](COP(=O)(O)OP(=O)(O)O)[C@@H](O)[C@H]1O
Yes

Now the same for Cc1cn([C@H]2C[C@H](O)[C@@H](COP(=O)(O)OP(=O)(O)O)O2)c(=O)[nH]c1=O
Yes

Now the same for O=P(O)(O)OC(CO)CO [β-Glycerol Phosphate]
No

Now the same for O=C[C@@H](O)[C@@H](O)[C@H](O)[C@H](O)COP(=O)(O)O [Mannose-6-Phosphate]
No

Now the same for Cc1cn([C@H]2C[C@H](O)[C@@H](COP(=O)(O)O)O2)c(=O)[nH]c1=O
No

Now the same for Nc1nc2c(ncn2[C@@H]2O[C@H](COP(=O)(O)OP(=O)(O)O)[C@@H](O)[C@H]2O)c(=O)[nH]1
Yes

Now the same for NC(=O)C1=CN([C@@H]2O[C@H](COP(=O)(O)OP(=O)(O)OC[C@H]3O[C@@H](n4cnc5c(N)ncnc54)[C@H](OP(=O)(O)O)[C@@H]3O)[C@@H](O)[C@H]2O)C=CC1
Yes

Now the same for C[C@@H](OP(=O)(O)O)[C@H](N)C(=O)O
No

Now the same for O=C[C@H](O)[C@@H](O)[C@H](O)[C@H](O)COP(=O)(O)O [Glucose-6-Phosphate]
Yes

Now the same for N[C@@H](Cc1ccc(OP(=O)(O)O)cc1)C(=O)O
No

Now the same for NCCOP(=O)(O)O
Yes

Now the same for O=C[C@H](O)[C@H](O)[C@H](O)COP(=O)(O)O [Ribose-5-Phosphate]
No

Now the same for O=c1ccn([C@@H]2O[C@H](COP(=O)(O)OP(=O)(O)O)[C@@H](O)[C@H]2O)c(=O)[nH]1
Yes

Now the same for Nc1ncnc2c1ncn2[C@@H]1O[C@H](COP(=O)(O)O)[C@@H](O)[C@H]1O
No

Now the same for NC(=O)c1ccc[n+]([C@@H]2O[C@H](COP(=O)([O-])OP(=O)(O)OC[C@H]3O[C@@H](n4cnc5c(N)ncnc54)[C@H](OP(=O)(O)O)[C@@H]3O)[C@@H](O)[C@H]2O)c1
Yes

Now the same for C=C(OP(=O)(O)O)C(=O)O
No

Now the same for O=C(COP(=O)(O)O)[C@@H](O)[C@H](O)[C@H](O)COP(=O)(O)O [Fructose-1,6-bisphosphate]
No

Now the same for Cc1ncc(C[n+]2csc(CCO[P@](=O)(O)OP(=O)(O)O)c2C)c(N)n1 [Thiamine Pyrophosphate]
Yes

Now the same for O=P(O)(O)O[C@H]1O[C@H](CO)[C@H](O)[C@H](O)[C@H]1O [Galactose-1-Phosphate]
Yes
